Molecular target: Sigma-1
Test: Sigma-1 Ki determination (NIMH-PDSP)
Conditions: standard drug haloperidol
Counter-ions that a name gives are not always drawn.

{"columns": ["compound", "Ki [nM]"],
 "data": [
  ["CN[C@]1(c2ccccc2Cl)CCCC[C@@H]1NCCCc1ccc(F)cc1 (relative stereo) [Example 3a, dihydrochloride]", 35.4],
  ["CN[C@]1(c2ccccc2Cl)CCCC[C@H]1NCCCN1CCN(C)CC1 (relative stereo) [Example 13b]", 146],
  ["CN[C@]1(c2ccccc2Cl)CCCC[C@@H]1NCCCc1ccccc1 (relative stereo) [Example 4a, dihydrochloride]", 97.2],
  ["CN[C@]1(c2ccccc2Cl)CCCC[C@H]1NCCCc1ccc(F)cc1 (relative stereo) [Example 3b, dihydrochloride]", 217]
]}

Every entry's value here was drawn from patent US11007200B2.
